# procedure_text: Half life in mouse at 1 mg/kg, iv
# Type: ADME, organism-based
# Set-up: dose 1 mg/kg, route intravenous
# conditions: in vivo
Measured half-life accompanies every entry in the list below.
Unit h implied. Number only.

Example entries begin here.
CCNC(=O)Nc1ccc(-c2nc3c(c(N4CCOC[C@@H]4C)n2)C[C@@H]2CC[C@H]3N2S(C)(=O)=O)cc1 1.02
CCNC(=O)Nc1ccc(-c2nc3c(c(N4CCOC[C@@H]4C)n2)C[C@@H]2CC[C@H]3N2C(=O)COC)cc1 0.82

According to the records, this compound CCNC(=O)Nc1ccc(-c2nc3c(c(N4CCOC[C@@H]4C)n2)C[C@@H]2CC[C@H]3N2C)cc1 displays half-life of 1.3

According to the records, this compound CCNC(=O)Nc1ccc(-c2nc3c(c(N4CCOC[C@@H]4C)n2)[C@H]2CC[C@@H](C3)N2C)cc1 displays half-life of 0.8

According to the records, this compound CCNC(=O)Nc1ccc(-c2nc3c(c(N4CCOC[C@@H]4C)n2)C[C@@H]2CC[C@H]3N2C(C)=O)cc1 displays half-life of 1.2

According to the records, this compound CCNC(=O)Nc1ccc(-c2nc3c(c(N4CCOC[C@@H]4C)n2)[C@@H]2CC[C@H](C3)N2C)cc1 displays half-life of 1.07

According to the records, this compound CCNC(=O)Nc1ccc(-c2nc3c(c(N4CCOC[C@@H]4C)n2)C[C@@H]2CC[C@H]3N2C2COC2)cc1 displays half-life of 2

###

# procedure_text: Cytotoxicity against human MCF7 neo/Her2 cells after 3 days by CellTiter-Glo assay
# conditions: MCF7, 72 h
pEC50: −log10 of the molar value.
Cut-off 7 on pEC50, inclusive. At or above means 1 (yes); below means 0 (no).

Study these solved cases before continuing.
CCNC(=O)Nc1ccc(-c2nc3c(c(N4CCOC[C@@H]4C)n2)C[C@@H]2CC[C@H]3N2C(=O)COC)cc1 1 (yes)
CCNC(=O)Nc1ccc(-c2nc3c(c(N4CCOC[C@@H]4C)n2)[C@H]2CC[C@@H](C3)N2S(C)(=O)=O)cc1 0 (no)

In the following, a different compound is considered.
## Input Please tell me: is the compound CCNC(=O)Nc1ccc(-c2nc3c(c(N4CCOC[C@@H]4C)n2)C[C@@H]2CC[C@H]3N2S(C)(=O)=O)cc1 at or over 7 in terms of pEC50?
## Output 1 (yes)

###

# System: PC-3
# procedure_text: Cytotoxicity against human PC3 cells after 4 days by CellTiter-Glo assay
# conditions: PC-3, 96 h
observed_property: pIC50
pIC50 here: minus log base 10 of the concentration, concentration in moles per litre.

According to the records, this molecule CCNC(=O)Nc1ccc(-c2nc3c(c(N4CCOC[C@@H]4C)n2)CCN(C2COC2)C3)cc1 displays pIC50 of 6.57

###

# procedure_text: Blood clearance in iv dosed dog
# Format: ADME, organism-based, Canis lupus familiaris
# conditions: whole blood
observed_property: clearance (mL/min/kg)
Unit mL/min/kg implied. Number only.

According to the records, this compound CCNC(=O)Nc1ccc(-c2nc3c(c(N4CCOC[C@@H]4C)n2)C[C@@H]2CC[C@H]3N2C2COC2)cc1 displays clearance of 6

###

# Tested on: Mus musculus
# procedure_text: Unbound clearance in mouse at 1 mg/kg, iv
# Assay type: ADME, organism-based
# Set-up: dose 1 mg/kg, route intravenous
# conditions: in vivo
Cut-off 200 mL/min/kg on CL free, inclusive. At or above means T; below means F.

Study these solved cases before continuing.
molecule	label
CCNC(=O)Nc1ccc(-c2nc3c(c(N4CCOC[C@@H]4C)n2)C[C@@H]2CC[C@H]3N2S(C)(=O)=O)cc1	T
CCNC(=O)Nc1ccc(-c2nc3c(c(N4CCOC[C@@H]4C)n2)CCN(C2COC2)C3)cc1 [RG-7603]	F
CCNC(=O)Nc1ccc(-c2nc3c(c(N4CCOC[C@@H]4C)n2)[C@@H]2CC[C@H](C3)N2C)cc1	F

## Input Please tell me: is the molecule CCNC(=O)Nc1ccc(-c2nc3c(c(N4CCOC[C@@H]4C)n2)C[C@@H]2CC[C@H]3N2C(=O)COC)cc1 at or over 200 mL/min/kg in terms of CL free?
## Output F

## Input Please tell me: is the molecule CCNC(=O)Nc1ccc(-c2nc3c(c(N4CCOC[C@@H]4C)n2)[C@H]2CC[C@@H](C3)N2C)cc1 at or over 200 mL/min/kg in terms of CL free?
## Output T

## Input Please tell me: is the molecule CCNC(=O)Nc1ccc(-c2nc3c(c(N4CCOC[C@@H]4C)n2)C[C@@H]2CC[C@H]3N2C2COC2)cc1 at or over 200 mL/min/kg in terms of CL free?
## Output F

## Input Please tell me: is the molecule CCNC(=O)Nc1ccc(-c2nc3c(c(N4CCOC[C@@H]4C)n2)C[C@@H]2CC[C@H]3N2C)cc1 at or over 200 mL/min/kg in terms of CL free?
## Output F

###

# procedure_text: Volume of distribution at steady state in iv dosed dog
# Type: ADME, organism-based, Canis lupus familiaris
# conditions: in vivo, read-out: Vdss
observed_property: Vd (L/kg)
Unit L/kg implied. Number only.

According to the records, this compound CCNC(=O)Nc1ccc(-c2nc3c(c(N4CCOC[C@@H]4C)n2)C[C@@H]2CC[C@H]3N2C2COC2)cc1 displays Vd of 3

###

Measured clearance accompanies every entry in the list below.
# procedure_text: Clearance in mouse at 1 mg/kg, iv
# Assay type: ADME, organism-based
# Parameters: dose 1 mg/kg, route intravenous
# conditions: in vivo
Unit mL/min/kg implied. Number only.

Example entries begin here.
CCNC(=O)Nc1ccc(-c2nc3c(c(N4CCOC[C@@H]4C)n2)C[C@@H]2CC[C@H]3N2C(C)=O)cc1 4.62
CCNC(=O)Nc1ccc(-c2nc3c(c(N4CCOC[C@@H]4C)n2)C[C@@H]2CC[C@H]3N2C2COC2)cc1 4.8

We next turn to a different compound, shown below.
According to the records, this compound CCNC(=O)Nc1ccc(-c2nc3c(c(N4CCOC[C@@H]4C)n2)[C@H]2CC[C@@H](C3)N2C)cc1 displays clearance of 67

###

Measured fraction unbound at 4 h, 5 µM accompanies every entry in the list below.
# procedure_text: Plasma protein binding in rat at 5 uM after 4 hrs by rapid equilibrium dialysis
# Type: ADME, cell-free
# conditions: read-out: PPB (converted)
Lab note: jot down the number only; don't add units.

Example entries begin here.
CCNC(=O)Nc1ccc(-c2nc3c(c(N4CCOC[C@@H]4C)n2)C[C@@H]2CC[C@H]3N2S(C)(=O)=O)cc1 0.1
CCNC(=O)Nc1ccc(-c2nc3c(c(N4CCOC[C@@H]4C)n2)[C@H]2CC[C@@H](C3)N2C)cc1 0.73
CCNC(=O)Nc1ccc(-c2nc3c(c(N4CCOC[C@@H]4C)n2)C[C@@H]2CC[C@H]3N2C(C)=O)cc1 0.16

We next turn to a different compound, shown below.
According to the records, this compound CCNC(=O)Nc1ccc(-c2nc3c(c(N4CCOC[C@@H]4C)n2)C[C@@H]2CC[C@H]3N2C2COC2)cc1 displays fraction unbound at 4 h, 5 µM of 0.24

###

Measured CLhep predicted accompanies every entry in the list below.
# procedure_text: Clearance in human liver microsomes
# Format: ADME, Microsome
Unit mL/min/kg implied. Number only.

CCNC(=O)Nc1ccc(-c2nc3c(c(N4CCOC[C@@H]4C)n2)C[C@@H]2CC[C@H]3N2C)cc1 14
CCNC(=O)Nc1ccc(-c2nc3c(c(N4CCOC[C@@H]4C)n2)C[C@@H]2CC[C@H]3N2S(C)(=O)=O)cc1 11
CCNC(=O)Nc1ccc(-c2nc3c(c(N4CCOC[C@@H]4C)n2)C[C@@H]2CC[C@H]3N2C(=O)COC)cc1 17
CCNC(=O)Nc1ccc(-c2nc3c(c(N4CCOC[C@@H]4C)n2)C[C@@H]2CC[C@H]3N2C2COC2)cc1 14
CCNC(=O)Nc1ccc(-c2nc3c(c(N4CCOC[C@@H]4C)n2)[C@@H]2CC[C@H](C3)N2C)cc1 15
CCNC(=O)Nc1ccc(-c2nc3c(c(N4CCOC[C@@H]4C)n2)C[C@@H]2CC[C@H]3N2C(C)=O)cc1 15

We next turn to a different compound, shown below.
According to the records, this compound CCNC(=O)Nc1ccc(-c2nc3c(c(N4CCOC[C@@H]4C)n2)[C@H]2CC[C@@H](C3)N2C)cc1 displays CLhep predicted of 12

###

# procedure_text: Half life in iv dosed dog
# Type: ADME, organism-based, Canis lupus familiaris
# conditions: in vivo
observed_property: half-life (h)
Unit h implied. Number only.

According to the records, this compound CCNC(=O)Nc1ccc(-c2nc3c(c(N4CCOC[C@@H]4C)n2)C[C@@H]2CC[C@H]3N2C2COC2)cc1 displays half-life of 3.1
